Species on record: Rattus norvegicus
assay.notes: Kinetic constant (Km) determined in rat brain mitochondria
Format: functional
metric: Km (µM)

Worked cases, answers included:
structure.smiles.string: CN1CC=C(Cc2cccc3ccccc23)CC1
Km / µM: 76.5
--
structure.smiles.string: Cc1ccccc1CC1=CCN(C)CC1
Km / µM: 58.8
--
structure.smiles.string: CN1CC=C(Cc2cccs2)CC1
Km / µM: 42.2
--
structure.smiles.string: Cc1cccc(CC2=CCN(C)CC2)c1
Km / µM: 77.1

a = CN1CC=C(Cc2ccc(Cl)cc2)CC1
b = CN1CC=C(CCc2ccccc2)CC1
(Q) Would you kindly point out which of a and b has the smaller Km figure? Answer with the label corresponding to your selection.
(A) a
(a: 49.4 µM, b: 119 µM)
